Source: patent US12565489B2

Procedure summary: Measurement of Log P values by HPLC on reversed phase columns (EEC directive 79/831 Annex V.A8)
Format: physicochemical
Condition summary: LogP

# Molecule, chromatographic logP
rows = [
    ("C=Cc1cccc(Oc2cnc(C)nc2C(=O)O)c1", 1.87),
    ("C#Cc1cccc(Oc2cnc(C)nc2C2=NOC[C@@H](Cc3ccc(C)cc3C)N2)c1 (racemic)", 3.85),
    ("Cc1ccc(C[C@H](CCl)NC(=NO)c2nc(C)ncc2Oc2cccc(C3CC3)c2F)c(C)c1 (racemic)", 4.51),
    ("Cc1ncc(Oc2cccc(C(F)(F)F)c2)c(C(=O)N[C@@H](CCl)Cc2ccc(OC(F)F)cc2Cl)n1 (racemic)", 4.51),
    ("Cc1ccc(C[C@@H]2CON=C(c3nc(C)ncc3Oc3cccc(OC(F)F)c3)N2)c(C)c1 (racemic)", 3.94),
    ("Cc1ncc(Oc2cccc(C(F)(F)F)c2)c(C(=O)N[C@@H](CCl)Cc2ccc(C(F)F)cc2Cl)n1 (racemic)", 4.37),
]

----------
System: Septoria tritici
Procedure summary: Septoria tritici in vitro cell test
Type: cell-based
Condition summary: Zymoseptoria tritici, 168 h; 20 ppm of active ingredient; 7 days incubation; liquid culture, spectrometric measurement of mycelium growth; read-out: efficacy (inhibition of fungal growth)
Recorded inhibition at 20 ppm, one value per entry.

# Compound, Assay system, inhibition at 20 ppm
measured = [
    ("Cc1ncc(Oc2cccc(C(F)(F)F)c2)c(C2=NOC[C@@H](Cc3ccc(C(F)F)cc3Cl)N2)n1 (racemic)", "Septoria tritici", "90 to 100%"),
    ("Cc1ccc(C[C@@H]2CON=C(c3nc(C)ncc3Oc3cccc(C4CC4)c3)N2)c(C)c1 (racemic)", "Septoria tritici", "90 to 100%"),
    ("Cc1ncc(Oc2cccc(C(F)(F)F)c2)c(C2=NOC[C@@H](Cc3ccc(OC(F)F)cc3Cl)N2)n1 (racemic)", "Septoria tritici", "90 to 100%"),
    ("C=Cc1ccc(C[C@@H]2CON=C(c3nc(C)ncc3Oc3cccc(C(F)(F)F)c3)N2)c(C)c1 (racemic)", "Septoria tritici", "90 to 100%"),
    ("Cc1ccc(C[C@@H]2CON=C(c3nc(C)ncc3Oc3cccc(Cl)c3)N2)c(C)c1 (racemic)", "Septoria tritici", "80 to 89%"),
    ("Cc1ccc(C[C@@H]2CON=C(c3nc(C)ncc3Oc3cccc(Cl)c3F)N2)c(Cl)c1 (racemic)", "Septoria tritici", "90 to 100%"),
]

----------
Procedure summary: Measurement of Log P values by HPLC on reversed phase columns (EEC directive 79/831 Annex V.A8)
Format: physicochemical
Condition summary: LogP
Recorded chromatographic logP, one value per entry.
Readout type: chromatographic logP

# Molecule, Recorded measurement
measured = [
    ("Cc1ccc(CC2CCN=C(c3nc(C)ncc3Oc3cccc(Cl)c3)N2)c(C)c1 (racemic) [Compound I-022]", 2.59),
    ("Cc1ccc(C[C@@H]2CON=C(c3nc(C)ncc3Oc3cccc(C(F)(F)F)c3)N2)c(Cl)c1 (racemic) [Compound I-013]", 4.47),
    ("Cc1ncc(Oc2cccc(C(F)(F)F)c2)c(C(=NO)N[C@@H](CCl)Cc2ccc(OC(F)F)cc2Cl)n1 (racemic) [Compound 11-09]", 4.08),
    ("COc1cccc(Oc2cnc(C)nc2C2=NOC[C@@H](Cc3ccc(C)cc3C)N2)c1 (racemic) [Compound I-032]", 3.66),
    ("Cc1ccc(CC2CON=C(c3nc(C)ncc3Oc3cccc(C(F)(F)F)c3)N2)c(C)c1 (racemic) [Compound I-002]", 4.33),
    ("Cc1ncc(Oc2cccc(C(F)(F)F)c2)c(C2=NOC[C@@H](Cc3ccc(SC(F)(F)F)cc3)N2)n1 (racemic) [Compound I-030]", 4.62),
    ("Cc1ccc(C[C@@H]2CON=C(c3nc(C)ncc3Oc3cccc(Cl)c3)N2)c(Cl)c1 (racemic) [Compound I-018]", 4.22),
    ("Cc1ncc(Oc2cccc(Cl)c2)c(C2=NOC(C)(C)[C@@H](c3ccc(F)cc3F)N2)n1 (racemic) [Compound I-035]", 3.84),
    ("Cc1ncc(Oc2cccc(C(F)(F)F)c2)c(C2=NOCC(Cc3ccc(C4CC4)cc3C)N2)n1 (racemic) [Compound I-029]", 4.7),
    ("Cc1ncc(Oc2cccc(Cl)c2)c(C2=NOCC(c3ccc4c(c3)CCC4)N2)n1 (racemic) [Compound I-014]", 4.05),
]

----------
Tested on: Septoria tritici
Procedure summary: Septoria tritici in vitro cell test
Format: cell-based
Condition summary: Zymoseptoria tritici, 168 h; 20 ppm of active ingredient; 7 days incubation; liquid culture, spectrometric measurement of mycelium growth; read-out: efficacy (inhibition of fungal growth)

# Molecule, inhibition at 20 ppm
data = [
    ("CSc1ncc(Oc2cccc(C(F)(F)F)c2)c(C2=NOC[C@@H](Cc3ccc(C)cc3Cl)N2)n1 (racemic)", "70 to 79%"),
    ("Cc1ncc(Oc2cccc(C(F)(F)F)c2)c(C2=NOC[C@@H](Cc3ccc(SC(F)(F)F)cc3)N2)n1 (racemic)", "70 to 79%"),
    ("Cc1ccc(C[C@@H]2CON=C(c3nc(C)ncc3Oc3cccc(C4CC4)c3F)N2)c(Cl)c1 (racemic)", "90 to 100%"),
    ("C#Cc1ccc(CC2CON=C(c3nc(C)ncc3Oc3cccc(C(F)(F)F)c3)N2)c(C)c1 (racemic)", "90 to 100%"),
]

----------
Tested on: Botrytis cinerea
Procedure summary: In vivo preventive test on Botrytis cinerea (grey mould)
Condition summary: 500 ppm of active ingredient, preventive spray on young gherkin or cabbage plants, evaluated 4 to 5 days after inoculation, read-out: efficacy
Recorded pest or weed control at 500 ppm, one value per entry.

# Compound, Assay system, pest or weed control at 500 ppm
data = [
    ("COc1cccc(Oc2cnc(C)nc2C2=NOC[C@@H](Cc3ccc(C)cc3C)N2)c1 (racemic) [Compound I-032]", "Botrytis cinerea", "90 to 100%"),
    ("Cc1ccc(CC2CON=C(c3nc(C)ncc3Oc3cccc([N+](=O)[O-])c3)N2)c(C)c1 (racemic) [Compound I-003]", "Botrytis cinerea", "90 to 100%"),
    ("Cc1ccc(C[C@@H]2CON=C(c3nc(C)ncc3Oc3cccc(Cl)c3)N2)c(C)c1 (racemic) [Compound I-023]", "Botrytis cinerea", "90 to 100%"),
]

----------
Procedure summary: Measurement of Log P values by HPLC on reversed phase columns (EEC directive 79/831 Annex V.A8)
Format: physicochemical
Condition summary: LogP
Recorded chromatographic logP, one value per entry.

# Molecule, chromatographic logP
measured = [
    ("Cc1ncc(Oc2cccc(Cl)c2F)c(C(=O)O)n1 [Compound 1-08]", 1.91),
    ("Cc1ccc(C[C@H](CCl)NC(=NO)c2nc(C)ncc2Oc2cccc(C3CC3)c2F)c(Cl)c1 (racemic) [Compound 11-03]", 4.62),
    ("Cc1ccc(C[C@@H]2CON=C(c3nc(C)ncc3Oc3cccc(C4CC4)c3)N2)c(C)c1 (racemic) [Compound I-024]", 4.55),
    ("Cc1ncc(Oc2cccc(Br)c2)c(C(=O)O)n1 [Compound 1-04]", 2.15),
    ("Cc1ccc(C[C@H](N)CCN)c(C)c1 (racemic) [Compound 9-06]", 0.23),
    ("CSc1ncc(Br)c(C(=O)N[C@@H](CON2C(=O)c3ccccc3C2=O)Cc2ccc(C)cc2C)n1 (racemic) [Compound 6a-01]", 4.55),
    ("O=C(O)c1nc(C2CC2)ncc1Oc1cccc(C(F)(F)F)c1 [Compound 1-02]", 2.49),
    ("Cc1ccc(C[C@H](CCl)NC(=NO)c2nc(C)ncc2Oc2cccc(Cl)c2)c(Cl)c1 (racemic) [Compound 11-05]", 4.28),
    ("Cc1ncc(Oc2cccc(C(F)(F)F)c2)c(C2=NOCC(Cc3ccc(Br)cc3C)N2)n1 (racemic) [Compound I-021]", 4.48),
]
